Assay: qHTS of pediatric cancer cell lines to identify multiple opportunities for drug repurposing: Primary screen for MG 63 (6-TG R) cells (AID 1347105); also: nearly all actives have a fitted effect of over 50% in size; also: potency is read from the fitted curve at half-maximal effect
Settings: MG 63 (6-TG R) viability, CellTiter-Glo, 48 h; series mostly up to 46 µM
Experimental: Drug repurposing or repositioning has been offered as a strategy for drug development in oncology programs. This approach has special potential for childhood cancers and other rare or orphan diseases, where the expected return on new drug development has been a disincentive to pharmaceuticals. […] We employed a titration-based paradigm (quantitative high-throughput screening or qHTS), where all compounds were tested at multiple concentrations for their effect on cell viability. […]
Records with an inconclusive call do not appear. Activity calls are given as the source filed them. Calls follow the shape of the dose curve; as a rule, active = well fitted cell-killing curve with a large enough effect; inconclusive = small, poorly fitted or top-dose-only effect; inactive = no such curve, though single readings can be large or run the other way.
property_label: Potency

{"compound": "CN1[C@H]2CC(O)C[C@H]1[C@H]1O[C@H]12 (some centres undefined)", "property_label": "Potency", "meas_value": "14.8 µM (active)"}
{"compound": "c1cc2ccc3cccc4ccc(c1)c2c34", "property_label": "Potency", "meas_value": "inactive"}
{"compound": "CCNC(=O)C[C@@H]1N=C(c2ccc(Cl)cc2)c2cc(OC)ccc2-n2c(C)nnc21", "property_label": "Potency", "meas_value": "0.469 µM (active)"}
{"compound": "CC(C)(C)NC[C@H](O)c1ccc(O)cc1Cl", "property_label": "Potency", "meas_value": "inactive"}
{"compound": "CCC1(CCC(C)C)C(=O)NC(=O)NC1=O", "property_label": "Potency", "meas_value": "inactive"}

QUERY: Which Potency value belongs to "COC1=CC(C)=C[C@@H](C)[C@@H](O)[C@@H](C)CC(C)=CC=C[C@H](OC)[C@H]([C@@H](C)[C@@H](O)[C@H](C)[C@@]2(O)C[C@@H](O)[C@H](C)[C@@H](C(C)C)O2)OC1=O" ?
RESULT: 0.0059 µM (active)

QUERY: Which Potency value belongs to "COc1cccc2c1[C@]13CCN(CC4CC4)[C@H](C2)[C@]1(OC)CCC(=O)C3" ?
RESULT: inactive

QUERY: Which Potency value belongs to "CC1=C(O)C(=O)C=C2C1=CC=C1[C@@]2(C)CC[C@@]2(C)[C@@H]3C[C@](C)(C(=O)O)CC[C@]3(C)CC[C@]12C" ?
RESULT: 0.935 µM (active)

QUERY: Which Potency value belongs to CCC(=O)O[C@@H]1C=C2CCC3C(CCC4(C)C3CC[C@@H]4OC(=O)CC)C2CC1 (some centres undefined) ?
RESULT: inactive

QUERY: Which Potency value belongs to "CC1(N2CCC(n3c([C@@H]4CCCNC4)nc4ccccc43)CC2)CCCCCCC1" ?
RESULT: inactive

QUERY: Which Potency value belongs to COC(=O)c1cncn1C(C)c1ccccc1 (centres undefined) ?
RESULT: inactive

QUERY: Which Potency value belongs to "CC(C)N(CCNC(=O)CN1CCCC1=O)C(C)C" ?
RESULT: inactive

* * *

test: qHTS for Inhibitors of the Functional Ribonucleoprotein Complex (vRNP) of Lassa (LASV) Arenavirus: LASV Primary Screen - GLuc reporter signal (AID 1347082); conditions: LASV minigenome vRNP, Gaussia luciferase reporter; series mostly up to 57.5 µM; also: nearly all actives have a fitted effect of over 60% in size
Inconclusive results are not listed. Activity calls are given as the source filed them. Calls follow the shape of the full dose curve; tested in HEK293 reporter line.
Respond using exactly one of the listed classes: t = active, f = inactive

Take a look at these entries with their results.
{"molecule": "CC(C)(Sc1ccc(CCN(CCCCC2CCCCC2)C(=O)NC2CCCCC2)cc1)C(=O)O", "category": "f"}
{"molecule": "COC(=O)c1cncn1C(C)c1ccccc1 (stereo unspecified)", "category": "f"}
{"molecule": "CCCCc1ccc(C(=O)O)nc1", "category": "f"}
{"molecule": "NC(=O)c1ccc(N(C(N)=O)c2c(F)cccc2F)nc1-c1ccc(F)cc1F", "category": "f"}
{"molecule": "O=C1C=CC[C@@H]2[C@H]3CCCN4CCC[C@@H](CN12)[C@@H]34", "category": "f"}
{"molecule": "C[C@@H]1CN(CC(=O)Nc2ccc3c(c2)Cc2cccc(-c4cc(=O)cc(N5CCOCC5)o4)c2S3)C[C@H](C)O1", "category": "f"}
{"molecule": "NC(=O)CN1CC(O)CC1=O (stereo unspecified)", "category": "f"}
{"molecule": "S=c1[nH]c2ccccc2s1", "category": "f"}
{"molecule": "CCOC(=O)c1c(C)n(C)c2ccc(O)cc12", "category": "f"}
{"molecule": "Nc1nc2ccc([N+](=O)[O-])cc2s1", "category": "f"}

QUERY: How was "Nc1cc(C(F)(F)F)c(-c2cc(N3CCOCC3)nc(N3CCOCC3)n2)cn1" classified in this test?
RESULT: t

QUERY: How was "C[C@](O)(COc1ccc(C#N)cc1)C(=O)Nc1ccc(C#N)c(C(F)(F)F)c1" classified in this test?
RESULT: f

QUERY: How was "O=C(N[C@@H](COc1ccc2[nH]c(=O)[nH]c2c1)c1ccccc1)c1cccn(Cc2ccc(F)c(F)c2)c1=O" classified in this test?
RESULT: f

QUERY: How was "c1ccc2occc2c1" classified in this test?
RESULT: f

QUERY: How was "COc1ccc(C2=N[C@H](c3ccc(Cl)cc3)[C@H](c3ccc(Cl)cc3)N2C(=O)N2CCNC(=O)C2)c(OC(C)C)c1" classified in this test?
RESULT: f

QUERY: How was "Cc1c(C)c2c(c(C)c1OC(=O)c1cccnc1)CC[C@@](C)(CCC[C@H](C)CCC[C@H](C)CCCC(C)C)O2" classified in this test?
RESULT: f

QUERY: How was CC(Cc1ccc(O)cc1)NCC(O)c1cc(O)cc(O)c1 (stereo unspecified) classified in this test?
RESULT: f

QUERY: How was "Nc1ccc(Sc2ccc(N)cc2)cc1" classified in this test?
RESULT: f

QUERY: How was "N#Cc1ccc(COC[C@H]2O[C@@H](n3c(NCc4ccc(Cl)c(Cl)c4)nc4c(N)ncnc43)[C@@H](O)[C@@H]2O)cc1" classified in this test?
RESULT: f

QUERY: How was "COc1cc2nc(-c3ccc(N4CCN(C)CC4)cc3)nc(NCCN3CCOCC3)c2cc1OC" classified in this test?
RESULT: t

QUERY: How was "COC[C@H]1OC(=O)c2coc3c2[C@@]1(C)C1=C(C3=O)[C@@H]2CC[C@H](O)[C@@]2(C)C[C@@H]1OC(C)=O" classified in this test?
RESULT: f
